# Assay Info: folding stability dG unfold from chymotrypsin proteolysis; higher = more stable
If the reported folding stability dG unfold equals or exceeds 0.4 kcal/mol, assign t. If not, assign f.

Completed entries (count: 5):
{"Sequence Code": "SAGGSATLPEKILEELAAAGYPLEYVTITEVKTEERPGSVVVTVKVEYKVPNSDRIETVNLTVPRPSAGGSA [r15_863_JUSTAS]", "Classification": "t"}
{"Sequence Code": "SAGGSAGGSKKKVKVEIVEYDPETKKVTVRVTVDGKEYEFTFSTPEELEAAAKAGKIDEITLTSAGGSAGGS [r12_421_TrROS_Hall]", "Classification": "t"}
{"Sequence Code": "SAGKKTVTIVIRLKEPGERLSAEELAALLRELGLPPGAKVTVERRPDGYLVVTVEVDGKTVTIVIELEDSAG [r5_144_TrROS_Hall]", "Classification": "t"}
{"Sequence Code": "SAGSPEELAEKIAEELAAEYEKKNPDKKPVKIEVKEVVVDPEGGSVTIKIKFYDPDGKPLAEPVITVESAGG [r19_53_JUSTAS]", "Classification": "t"}
{"Sequence Code": "SAGGSAMKIEITVEKNENGELTITVKIYDKNGKLVKEIKLKVKTEEEAKKALKELAEKLGIEVEPESAGGSA [r15_242_TrROS_Hall]", "Classification": "t"}

Could you verify whether the entry MLVVEVPAEELSPEQVRERIRAALRAAREAGIRDARIVIVVEASEEQRERLRRELRELAEEEGLEVEIVERS [r1_387_TrROS_Hall] shows folding stability dG unfold of no less than 0.4 kcal/mol? t

Given SAGGSAGGSAEKGIAFILLVTEEGDLEKALETAEELKKELEEKTGKPVEVVVNIFVVEPELFSAGGSAGGSA [r18_515_TrMRF] , state whether its folding stability dG unfold is at least 0.4 kcal/mol. t

Determine whether this sequence has folding stability dG unfold no lower than 0.4 kcal/mol: SAGGSAGGSAGGMRKYLVTLKPPNGPVTRYILPSEEEIKEFVAPLNAEYEVTPLSEDVPPSAGGSAGGSAGG [r7_456_JUSTAS] t

Does SAMTTTTSVDPASGSSTVTTTEIIEKPAGKLPNGTKLPPVKVKKTTTTTYAPNGTKLSTTTTTTPVPLGSAG [r14_246_JUSTAS] have a reported folding stability dG unfold of at least 0.4 kcal/mol? t

Tell me whether folding stability dG unfold is at least 0.4 kcal/mol here: SAGGSAGGSAGGPDVTTSDSVSLERLPDDTIVLRRTTTVTPPTGPPVVTSTTTVLPPSTLSAGGSAGGSAGG [r17_312_JUSTAS] f

---

# Assay Info: folding stability dG unfold from trypsin proteolysis; higher = more stable
Endpoint Label: folding stability dG unfold (kcal/mol)
A number alone suffices; assume kcal/mol.

Sample SAGGSAGGSATRVEVEWKDGYLVITKYETLPNGEWKEVKTIVIPIEGNDPIAIEKAKEVIEKLSAGGSAGGS [r12_169_JUSTAS] ; folding stability dG unfold observed: 2.89

response.value for GKVLAVPVSYDPETGTVTVLEVKDTGTTLATLKPLPVVDISREELEKLAKGLAEENPELKELAEKLVEELAS [r1_330_TrMRF] (field: folding stability dG unfold) = -0.145

Per the record, SAGGSAGGSAPPLDRVFVEVRVEPGEDAGVVVTHPDGRVLTAPADADVVFEFHPDVPVLVADASAGGSAGGS [r12_553_TrMRF] has folding stability dG unfold of -1.27

Field folding stability dG unfold (entry SAGGSAGGSGMTAEEAREKKVAELKAQGYTPVKVEVVETRTDPATGKVTTKIKIEYKSPKGLTSAGGSAGGS [r20_46_JUSTAS] ) reads 0.0908
